Parameter: red/green cell ratio (normalised). Scope: all listed entries.
Experiment: differential killing of epithelial or mesenchymal cells, primary screen, imaging, PC-3E GFP, TEM4-18 mCherry, co-culture (AID 1345086);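 note: normalised mesenchymal count divided by normalised epithelial count so high means epithelial killing; cells exposed to compound for 72 h before imaging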
Conditions: imaging cell counts, at 1 µM, actives lie on both sides, counts scaled to control wells, 1 = unselective
assay.metric: red/green cell ratio (normalised)

{"columns": ["molecule", "assay.metric", "quantitative.readout"],
 "data": [
  ["NCC(=O)CCC(=O)O", "red/green cell ratio (normalised)", 1.08],
  ["NS(=O)(=O)c1cc2c(cc1Cl)NC=NS2(=O)=O", "red/green cell ratio (normalised)", 1.16],
  ["CS(=O)(=O)OCCCCOS(C)(=O)=O", "red/green cell ratio (normalised)", 1.02],
  ["NCc1ccc(S(N)(=O)=O)cc1", "red/green cell ratio (normalised)", 1],
  ["CCN(CC)CC(=O)Nc1c(C)cccc1C", "red/green cell ratio (normalised)", 1.11],
  ["O=C1C(CCS(=O)c2ccccc2)C(=O)N(c2ccccc2)N1c1ccccc1 (stereo not drawn)", "red/green cell ratio (normalised)", 1.33],
  ["CN(C)CCC=C1c2ccccc2CCc2ccccc21", "red/green cell ratio (normalised)", 1],
  ["CCS(=O)(=O)CCn1c([N+](=O)[O-])cnc1C", "red/green cell ratio (normalised)", 0.88],
  ["CCCCc1oc2ccccc2c1C(=O)c1cc(I)c(OCCN(CC)CC)c(I)c1", "red/green cell ratio (normalised)", 1.08],
  ["CCCSc1ccc2nc(NC(=O)OC)[nH]c2c1", "red/green cell ratio (normalised)", 0.93],
  ["NC12CC3CC(CC(C3)C1)C2", "red/green cell ratio (normalised)", 1.38],
  ["Cc1nc2ccccn2c(=O)c1CCN1CCC(C(=O)c2ccc(F)cc2)CC1", "red/green cell ratio (normalised)", 1.29],
  ["O=c1n(CCCN2CCN(c3cccc(Cl)c3)CC2)nc2ccccn12", "red/green cell ratio (normalised)", 1.12],
  ["CCC1(c2ccccc2)C(=O)NCNC1=O", "red/green cell ratio (normalised)", 1.02],
  ["Nc1nc2c(ncn2COCCO)c(=O)[nH]1", "red/green cell ratio (normalised)", 1.25],
  ["Nc1nc(N)c2nc(-c3ccccc3)c(N)nc2n1", "red/green cell ratio (normalised)", 1.25],
  ["COc1ccc(OC)c(C(O)CNC(=O)CN)c1 (stereo not drawn)", "red/green cell ratio (normalised)", 1.18],
  ["C[C@H](CS)C(=O)N1CCC[C@H]1C(=O)O", "red/green cell ratio (normalised)", 1.1]
]}

----------
System: Hepatitis C virus NS3 helicase
Test: HCV NS3 helicase inhibitors, primary screen, biochemical, fluorescence polarization, LOPAC1280 library (AID 687035)
Settings: Purified HCV NS3 helicase, Cy5-dT15 ssDNA binding fluorescence polarization; active compounds read high; concentration not given here

{"columns": ["compound", "tested.on", "value.unit", "inhibition"],
 "data": [
  ["CC(C[N+](C)(C)C)OC(N)=O (stereo not given)", "Hepatitis C virus NS3 helicase", "%", -2],
  ["NC12CC3CC(CC(C3)C1)C2", "Hepatitis C virus NS3 helicase", "%", -1],
  ["Oc1ccc(/C=C/c2cc(O)cc(O)c2)cc1", "Hepatitis C virus NS3 helicase", "%", -3],
  ["CC1=NS(=O)(=O)c2cc(Cl)ccc2N1", "Hepatitis C virus NS3 helicase", "%", -1],
  ["CSc1ccc2c(c1)N(CCC1CCCCN1C)c1ccccc1S2 (stereo not given)", "Hepatitis C virus NS3 helicase", "%", -3],
  ["COc1cc2nc(N3CCN(C(=O)c4ccco4)CC3)nc(N)c2cc1OC", "Hepatitis C virus NS3 helicase", "%", -1],
  ["C[C@H](CS)C(=O)N1CCC[C@H]1C(=O)O", "Hepatitis C virus NS3 helicase", "%", 0],
  ["Nc1ncn([C@@H]2O[C@H](CO)[C@@H](O)[C@H]2O)c(=O)n1", "Hepatitis C virus NS3 helicase", "%", -1],
  ["CCCN1C[C@H](CSC)C[C@@H]2c3cccc4[nH]cc(c34)C[C@H]21", "Hepatitis C virus NS3 helicase", "%", -6],
  ["O=C1NC(=O)C(c2ccccc2)(c2ccccc2)N1", "Hepatitis C virus NS3 helicase", "%", 1]
]}
